- Tested system: KRAS G12V (Homo sapiens (Human), UniProt P01116+P62937, G12V)
- Sequence (P01116 other isoform, or with tags, fused parts or gaps G12V): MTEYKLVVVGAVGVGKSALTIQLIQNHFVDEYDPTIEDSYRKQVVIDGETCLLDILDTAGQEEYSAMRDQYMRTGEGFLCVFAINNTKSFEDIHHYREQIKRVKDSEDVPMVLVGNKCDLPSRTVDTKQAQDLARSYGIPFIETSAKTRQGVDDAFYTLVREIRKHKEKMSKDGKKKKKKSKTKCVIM
- Sequence (P62937 whole entry): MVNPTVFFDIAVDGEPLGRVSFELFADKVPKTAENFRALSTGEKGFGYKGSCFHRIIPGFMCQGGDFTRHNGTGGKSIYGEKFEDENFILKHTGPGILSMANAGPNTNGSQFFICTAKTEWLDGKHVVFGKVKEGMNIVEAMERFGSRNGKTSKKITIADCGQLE
- Test method notes: Ras-Raf disruption/FRET/MOA assay (BRAF RBD, Cyclophilin A)
- Type: biochemical
- Condition summary: read-out: KRAS G12V FRET IC50
- Experimental: Compound is present in plate wells as a 10-point 3-fold dilution series starting at a final concentration of 30 μM. After incubation at 25° C. for 3 hours, a mixture of Anti-His Eu—W1024 and anti-GST allophycocyanin is then added to assay sample wells at final concentrations of 10 nM and 50 nM, respectively, and the reaction incubated for an additional 1.5 hours. […]
// IC50 lookup, one value per entry

Compound	IC50
CCn1c(-c2cccnc2[C@H](C)OC)c2c3cc(ccc31)-c1csc(n1)C[C@H](NC(=O)[C@H](C(C)C)N(C)C(=O)N1CC3(CCOCC3)C1)C(=O)N1CCC[C@H](N1)C(=O)OCC(C)(C)C2 [Compound A521]	100 to 1000 nM
CCn1c(-c2cccnc2[C@H](C)OC)c2c3cc(ccc31)-c1csc(n1)C[C@H](NC(=O)[C@H](C(C)C)N(C)C(=O)N1CCCC[C@H](N(C)C)C1)C(=O)N1CCC[C@H](N1)C(=O)OCC(C)(C)C2 [Compound A491]	100 to 1000 nM
CCn1c(-c2cc(N3CCN(C)CC3)cnc2[C@H](C)OC)c2c3cc(ccc31)-c1csc(n1)C[C@H](NC(=O)[C@H](C(C)C)N(C)C(=O)N1CC(C3COC3)C1)C(=O)N1CCC[C@H](N1)C(=O)OCC(C)(C)C2 [Compound A465]	10 to 100 nM
CCn1c(-c2cccnc2[C@H](C)OC)c2c3cc(ccc31)-c1csc(n1)C[C@H](NC(=O)[C@H](C(C)C)N(C)C(=O)N1C3COCC1C3)C(=O)N1CCC[C@H](N1)C(=O)OCC(C)(C)C2 [Compound A540]	100 to 1000 nM
